# subject-of-test: WIZ protein (HiBit-WIZ fusion protein) (Homo sapiens, UniProt O95785+Q96SW2)
# Construct: expressed in transfected cells
# Sequence (O95785 whole entry, the tested form may be a part): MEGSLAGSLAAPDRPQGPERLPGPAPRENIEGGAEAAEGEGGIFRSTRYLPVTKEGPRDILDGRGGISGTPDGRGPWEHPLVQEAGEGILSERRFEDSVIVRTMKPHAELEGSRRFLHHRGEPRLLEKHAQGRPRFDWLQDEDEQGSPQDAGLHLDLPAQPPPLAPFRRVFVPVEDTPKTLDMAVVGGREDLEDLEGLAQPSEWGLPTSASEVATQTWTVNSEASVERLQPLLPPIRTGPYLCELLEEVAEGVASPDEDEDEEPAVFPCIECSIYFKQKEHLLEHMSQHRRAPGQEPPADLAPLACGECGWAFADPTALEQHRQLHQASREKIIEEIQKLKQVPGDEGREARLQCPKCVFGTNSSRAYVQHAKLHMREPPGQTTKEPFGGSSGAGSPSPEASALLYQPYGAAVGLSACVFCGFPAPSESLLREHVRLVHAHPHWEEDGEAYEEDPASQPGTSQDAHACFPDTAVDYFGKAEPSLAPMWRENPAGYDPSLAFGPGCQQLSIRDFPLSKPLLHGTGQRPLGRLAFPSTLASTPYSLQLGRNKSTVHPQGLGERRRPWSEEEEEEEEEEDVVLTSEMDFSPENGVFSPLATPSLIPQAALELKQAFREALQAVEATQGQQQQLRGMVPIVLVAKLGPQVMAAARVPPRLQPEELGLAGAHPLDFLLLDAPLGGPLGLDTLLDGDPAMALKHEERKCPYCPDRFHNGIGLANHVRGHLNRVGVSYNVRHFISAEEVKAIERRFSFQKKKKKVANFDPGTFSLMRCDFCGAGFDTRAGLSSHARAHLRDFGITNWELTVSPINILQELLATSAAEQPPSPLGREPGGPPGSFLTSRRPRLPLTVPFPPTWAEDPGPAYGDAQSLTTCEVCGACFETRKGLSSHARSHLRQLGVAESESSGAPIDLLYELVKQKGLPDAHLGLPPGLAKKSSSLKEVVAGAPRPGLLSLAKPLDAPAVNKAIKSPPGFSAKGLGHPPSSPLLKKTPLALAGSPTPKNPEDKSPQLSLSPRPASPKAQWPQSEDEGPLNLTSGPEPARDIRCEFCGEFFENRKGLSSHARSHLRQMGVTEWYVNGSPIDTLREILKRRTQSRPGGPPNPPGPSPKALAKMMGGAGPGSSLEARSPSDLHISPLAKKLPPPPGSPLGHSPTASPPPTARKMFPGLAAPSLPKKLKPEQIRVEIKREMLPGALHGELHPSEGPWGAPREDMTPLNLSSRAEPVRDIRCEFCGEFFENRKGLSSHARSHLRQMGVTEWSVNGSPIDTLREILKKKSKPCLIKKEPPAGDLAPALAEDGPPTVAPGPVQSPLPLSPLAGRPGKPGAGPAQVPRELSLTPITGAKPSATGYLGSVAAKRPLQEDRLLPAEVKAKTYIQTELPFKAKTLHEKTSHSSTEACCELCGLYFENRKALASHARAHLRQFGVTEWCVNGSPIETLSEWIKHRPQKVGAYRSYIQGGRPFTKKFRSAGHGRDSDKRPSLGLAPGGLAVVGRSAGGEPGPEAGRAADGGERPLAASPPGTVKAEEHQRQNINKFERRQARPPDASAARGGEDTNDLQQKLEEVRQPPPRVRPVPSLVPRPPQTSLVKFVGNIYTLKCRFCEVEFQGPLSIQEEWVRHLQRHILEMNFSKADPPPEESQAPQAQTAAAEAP
# Sequence (Q96SW2 whole entry, the tested form may be a part): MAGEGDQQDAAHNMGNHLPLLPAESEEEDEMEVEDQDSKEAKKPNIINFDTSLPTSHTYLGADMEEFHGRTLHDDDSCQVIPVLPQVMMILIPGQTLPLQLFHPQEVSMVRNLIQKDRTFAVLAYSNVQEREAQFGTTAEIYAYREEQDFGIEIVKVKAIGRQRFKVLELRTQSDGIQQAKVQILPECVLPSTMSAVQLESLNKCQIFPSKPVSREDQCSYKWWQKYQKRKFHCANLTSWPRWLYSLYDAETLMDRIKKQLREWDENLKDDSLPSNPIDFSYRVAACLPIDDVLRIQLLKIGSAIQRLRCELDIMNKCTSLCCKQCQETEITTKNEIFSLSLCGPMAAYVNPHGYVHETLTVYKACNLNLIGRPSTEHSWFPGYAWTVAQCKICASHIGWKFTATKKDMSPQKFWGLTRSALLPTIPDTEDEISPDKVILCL
# Sequence (Q16531 whole entry partner, the tested form may be a part): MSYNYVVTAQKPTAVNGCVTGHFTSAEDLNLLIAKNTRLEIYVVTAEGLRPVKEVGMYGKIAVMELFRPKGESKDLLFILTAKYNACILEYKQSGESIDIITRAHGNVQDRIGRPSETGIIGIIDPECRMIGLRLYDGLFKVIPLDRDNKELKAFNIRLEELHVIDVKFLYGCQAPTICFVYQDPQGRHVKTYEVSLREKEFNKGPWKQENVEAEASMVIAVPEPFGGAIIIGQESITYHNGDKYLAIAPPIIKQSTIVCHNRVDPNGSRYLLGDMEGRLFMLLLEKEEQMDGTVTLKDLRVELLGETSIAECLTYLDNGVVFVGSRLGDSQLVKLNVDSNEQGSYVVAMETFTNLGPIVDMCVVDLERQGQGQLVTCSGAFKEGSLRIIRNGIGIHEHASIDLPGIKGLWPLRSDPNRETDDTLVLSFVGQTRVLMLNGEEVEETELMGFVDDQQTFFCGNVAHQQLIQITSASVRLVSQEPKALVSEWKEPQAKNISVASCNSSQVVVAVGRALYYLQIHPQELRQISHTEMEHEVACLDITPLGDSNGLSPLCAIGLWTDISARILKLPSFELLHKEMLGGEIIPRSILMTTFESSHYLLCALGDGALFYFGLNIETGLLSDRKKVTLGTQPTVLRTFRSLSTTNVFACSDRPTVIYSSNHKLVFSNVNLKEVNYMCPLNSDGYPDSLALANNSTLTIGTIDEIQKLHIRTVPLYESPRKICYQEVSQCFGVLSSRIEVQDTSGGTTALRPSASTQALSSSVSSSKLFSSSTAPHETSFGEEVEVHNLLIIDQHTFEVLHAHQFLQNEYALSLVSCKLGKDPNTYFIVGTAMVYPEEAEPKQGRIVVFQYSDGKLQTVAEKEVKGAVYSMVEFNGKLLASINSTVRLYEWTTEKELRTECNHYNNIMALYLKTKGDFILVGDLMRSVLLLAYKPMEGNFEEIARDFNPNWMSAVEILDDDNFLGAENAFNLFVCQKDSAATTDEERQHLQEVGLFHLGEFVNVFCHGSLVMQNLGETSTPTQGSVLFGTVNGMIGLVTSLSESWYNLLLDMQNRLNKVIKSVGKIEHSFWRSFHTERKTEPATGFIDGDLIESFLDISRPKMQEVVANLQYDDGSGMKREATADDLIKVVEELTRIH
# procedure-text: Quantification of WIZ protein levels in HiBit tag fusion protein assay (WIZ HiBit assay in 293T cells)
# Assay type: cell-based
# cond: HEK-293T, 100 − Amax, at 25 uM; 293T cells; read-out: % degradation of WIZ (100 − Amax)
compounds and their reported Dmax at 25 µM
Value and unit, in that order.

C[C@H]1CN(Cc2ccn3ncc(N4CCC(=O)NC4=O)c3c2)CCN1CC1CCC1 [Example 213]
81%
CC(C)CCN1CCC(Cc2ccn3ncc(N4CCC(=O)NC4=O)c3c2)CC1 [Example 19]
81%
C[C@@H]1C[C@H](Cc2ccn3ncc(N4CCC(=O)NC4=O)c3c2)CCN1CC1CCOCC1 [Example 75]
81%
C[C@H]1C[C@H](Cc2ccn3ncc(N4CCC(=O)NC4=O)c3c2)CCN1CC1CC(F)(F)C1 [Example 152]
81%
CC(c1cccnc1)N1CCC(Cc2ccn3ncc(N4CCC(=O)NC4=O)c3c2)CC1 (stereo not shown) [Example 21]
78%
CC(C)CN1CCN(Cc2ccn3ncc(N4CCC(=O)NC4=O)c3c2)CC1 [Example 186]
79%
C[C@@H]1C[C@H](Cc2ccn3ncc(N4CCC(=O)NC4=O)c3c2)CCN1CC1CCCCC1 [Example 76]
81%
O=C1CCN(c2cnn3ccc(CN4C[C@H]5C[C@@H]4CN5CC4CCCCC4)cc23)C(=O)N1 [Example 234]
42%

Output reported Dmax at 25 µM of the compound O=C1CCN(c2cnn3ccc(CN4C[C@@H]5C[C@H]4CN5Cc4cccnc4)cc23)C(=O)N1 [Example 237] on WIZ protein (HiBit-WIZ fusion protein) (Homo sapiens, UniProt O95785+Q96SW2).
6%

Please indicate recorded Dmax at 25 µM of O=C1CCN(c2cnn3ccc(CC4CCN(CCC5CCOCC5)CC4)cc23)C(=O)N1 [Example 11] measured with WIZ protein (HiBit-WIZ fusion protein) (Homo sapiens, UniProt O95785+Q96SW2).
84%

---

# subject-of-test: WIZ protein (HiBit-WIZ fusion protein) (Homo sapiens, UniProt O95785+Q96SW2)
# Construct: expressed in transfected cells
# procedure-text: Quantification of WIZ protein levels in HiBit tag fusion protein assay (WIZ HiBit assay in 293T cells)
# Assay type: cell-based
# cond: HEK-293T, 100 − Amax, at 25 uM; 293T cells; read-out: % degradation of WIZ (100 − Amax)
assay-endpoint: Dmax at 25 µM (%)
Number only, in %; omit the unit.

C[C@H]1C[C@H](Cc2ccn3ncc(N4CCC(=O)NC4=O)c3c2)CCN1CC(F)(F)F
79

State its Dmax at 25 µM: C[C@H]1CC(F)(Cc2ccn3ncc(N4CCC(=O)NC4=O)c3c2)CCN1C1COC1 (single isomer, unassigned)
73

# return recorded Dmax at 25 µM for input Cc1cn(-c2cnn3ccc(CN4CCN(CC5CC5)[C@@H](C)C4)cc23)c(=O)[nH]c1=O
84

Report Dmax at 25 µM, nothing else, for this compound: C[C@H]1C[C@H](Cc2ccn3ncc(N4CCC(=O)NC4=O)c3c2)CCN1C[C@H]1C[C@@H](F)[C@@H](F)C1
87

Determine from records and report Dmax at 25 µM for CC(C)CN1CCC(Cc2ccn3ncc(N4CCC(=O)NC4=O)c3c2)C1 (centres unmarked)
41

Give recorded Dmax at 25 µM. CC(C)(O)CN1CCN(Cc2ccn3ncc(N4CCC(=O)NC4=O)c3c2)CC1
65

---

Quick reference for Dmax at 25 µM among some compounds
# subject-of-test: WIZ protein (HiBit-WIZ fusion protein) (Homo sapiens, UniProt O95785+Q96SW2)
# Construct: expressed in transfected cells
# procedure-text: Quantification of WIZ protein levels in HiBit tag fusion protein assay (WIZ HiBit assay in 293T cells)
# Format: cell-based
# cond: HEK-293T, 100 − Amax, at 25 uM; 293T cells; read-out: % degradation of WIZ (100 − Amax)
The answer is to be given in %; state only the numeric part.

C[C@H]1CN(Cc2ccn3ncc(N4CCC(=O)NC4=O)c3c2)CCN1C1CC2(CCC2)C1 [Example 335]
88
CC(C)CN1CCN(Cc2ccn3ncc(-n4cc(F)c(=O)[nH]c4=O)c3c2)C[C@@H]1C [Example 358]
86

Please report Dmax at 25 µM for the following compound: O=C1CCN(c2cnn3ccc(CC4CCN(S(=O)(=O)C5CCCC5)CC4)cc23)C(=O)N1 [Example 82]
90

Give reported Dmax at 25 µM value for Cc1cncc(CN2CCC(Cc3ccn4ncc(N5CCC(=O)NC5=O)c4c3)CC2)c1 [Example 36]
72

---

# subject-of-test: WIZ protein (HiBit-WIZ fusion protein) (Homo sapiens, UniProt O95785+Q96SW2)
# Construct: expressed in transfected cells
# procedure-text: Quantification of WIZ protein levels in HiBit tag fusion protein assay (WIZ HiBit assay in 293T cells)
# Type: cell-based
# cond: HEK-293T, 100 − Amax, at 25 uM; 293T cells; read-out: % degradation of WIZ (100 − Amax)
Rule: Dmax at 25 µM of 70% or more gives fulfilled; anything lower gives not fulfilled.

Use these answered entries as a reference point.
O=C1CCN(c2cnn3ccc(CC4CCN(CCc5c[nH]cn5)CC4)cc23)C(=O)N1 [Example 120]
not fulfilled
O=C1CCN(c2cnn3ccc(CC4CCN(Cc5cscn5)CC4)cc23)C(=O)N1 [Example 115]
not fulfilled
O=C1CCN(c2cnn3ccc(CC4CCN(Cc5nccs5)CC4)cc23)C(=O)N1 [Example 60]
not fulfilled
O=C1CCN(c2cnn3ccc(CN4CCN(C5CCCCC5)CC4)cc23)C(=O)N1 [Example 338]
fulfilled
C[C@H]1C[C@H](Cc2ccn3ncc(N4CCC(=O)NC4=O)c3c2)CCN1CC1CCO1 (some centres unmarked) [Example 277]
fulfilled
O=C1CCN(c2cnn3ccc(CC4CCN(S(=O)(=O)c5ccccc5)CC4)cc23)C(=O)N1 [Example 91]
fulfilled
CCS(=O)(=O)N1CC[C@@H](Cc2ccn3ncc(-n4ccc(=O)[nH]c4=O)c3c2)C[C@@H]1C [Example 356]
fulfilled

Now, please, on to the next compound.
Has O=C1CCN(c2cnn3ccc(CC4CCN(Cc5cccc(F)c5)CC4)cc23)C(=O)N1 [Example 22] a recorded Dmax at 25 µM greater than or equal to 70%?
fulfilled

---

# subject-of-test: WIZ protein (HiBit-WIZ fusion protein) (Homo sapiens, UniProt O95785+Q96SW2)
# Construct: expressed in transfected cells
# procedure-text: Quantification of WIZ protein levels in HiBit tag fusion protein assay (WIZ HiBit assay in 293T cells)
# Type: cell-based
# cond: HEK-293T, 100 − Amax, at 25 uM; 293T cells; read-out: % degradation of WIZ (100 − Amax)
Assign true to entries whose Dmax at 25 µM meets or exceeds 80%; assign false to the rest.

Example entries begin here.
O=C1CCN(c2cnn3ccc(CC4CCN(CC(=O)N5CCCCC5)CC4)cc23)C(=O)N1
false
O=C1CCN(c2cnn3ccc(CC4CCN(Cc5ccccn5)CC4)cc23)C(=O)N1
false
CO[C@H]1CC[C@H](CN2CCC(Cc3ccn4ncc(N5CCC(=O)NC5=O)c4c3)CC2)CC1
true
Cc1c(CC2CCN(CC3CCCCC3)CC2)ccn2ncc(N3CCC(=O)NC3=O)c12
false
Cc1cn(-c2cnn3ccc(C[C@@H]4CCN(CC5CC5)[C@@H](C)C4)cc23)c(=O)[nH]c1=O
true

Record C[C@H]1C[C@H](Cc2ccn3ncc(-n4cc(Cl)c(=O)[nH]c4=O)c3c2)CCN1CC1CCC(F)(F)CC1 ; criterion: Dmax at 25 µM no lower than 80%. Met?
true

Textbook exercise: given the entry O=C1CCN(c2cnn3ccc(CC4CCN(Cc5ccccc5)CC4)cc23)C(=O)N1 , state whether its Dmax at 25 µM is greater than or equal to 80%.
false

---

# subject-of-test: WIZ protein (HiBit-WIZ fusion protein) (Homo sapiens, UniProt O95785+Q96SW2)
# Construct: expressed in transfected cells
# procedure-text: Quantification of WIZ protein levels in HiBit tag fusion protein assay (WIZ HiBit assay in 293T cells)
# Assay type: cell-based
# cond: HEK-293T, DMSO-normalized, curve-fitted percentage of WIZ-HiBit remaining at 25 uM; 293T cells; read-out: WIZ Amax
# Experimental: The HiBit system from Promega was used to develop high-throughput and quantitative assays to measure changes in WIZ protein levels in response to compounds. […] The complementary fragment of Nanoluciferase (known as LgBit, from Promega), was added to the HiBit tag to form an active Nanoluciferase enzyme whose activity can be precisely measured. In this way, the levels of a fusion protein with the HiBit tag can be quantified in cell lysates. […]
assay-endpoint: remaining activity at 25 µM (%)
Just the number please, in %, no unit attached.

Below, 2 compounds whose answers are already recorded.
C[C@H]1C[C@H](Cc2ccn3ncc(N4CCC(=O)NC4=O)c3c2)CCN1C(=O)N1CCCC1
20
CC(C)(C1CCC(F)(F)CC1)N1CCC(Cc2ccn3ncc(N4CCC(=O)NC4=O)c3c2)CC1
10

Please examine the following record next.
Identify the reported remaining activity at 25 µM for the following entry. O=C1CCN(c2cnn3ccc(CC4CCN(S(=O)(=O)C5CCCC5)CC4)cc23)C(=O)N1
10
